System: Escherichia coli TOP10
Assay: shrunken log2 fold change of peptide-encoding DNA abundance (4.5 h post-induction vs induction); higher = less antimicrobial activity (less host growth inhibition)
Conditions: time post-induction: 4.5 h; library: site-saturation at positions 5, 18, 19, 20
# shrunken log2 fold change listing for each entry below
Answer with a number only.

RRIRTRPPRLPRPRPRPICIPRP
-0.196

Q. Output measured shrunken log2 fold change for this item: RRIRKRPPRLPRPRPRPYPMPRP
A. -0.2

Q. Output measured shrunken log2 fold change for this item: RRIRKRPPRLPRPRPRPGPTPRP
A. 0.65

Q. Output measured shrunken log2 fold change for this item: RRIRCRPPRLPRPRPRPICGPRP
A. 0.289

Q. Output measured shrunken log2 fold change for this item: RRIRWRPPRLPRPRPRPCTEPRP
A. -0.0149

Q. Output measured shrunken log2 fold change for this item: RRIRQRPPRLPRPRPRPKLVPRP
A. -0.0518

* * *

System: Escherichia coli TOP10
Assay: shrunken log2 fold change of peptide-encoding DNA abundance (4.5 h post-induction vs induction); higher = less antimicrobial activity (less host growth inhibition)
Conditions: time post-induction: 4.5 h; library: site-saturation at positions 5, 18, 19, 20
Please map values of shrunken log2 fold change to classes as shown: lowest: < -0.2; middle: ≥ -0.2 and < 0.1; highest: ≥ 0.1

Answered cases to consult:
RRIRIRPPRLPRPRPRPATMPRP
middle
RRIRARPPRLPRPRPRPKRHPRP
highest
RRIRIRPPRLPRPRPRPLDIPRP
lowest
RRIRNRPPRLPRPRPRPTTMPRP
middle
RRIRTRPPRLPRPRPRPELYPRP
lowest

Q. Into which bin does this sequence go? RRIRMRPPRLPRPRPRPEFDPRP
A. highest

Q. Into which bin does this sequence go? RRIRSRPPRLPRPRPRPPREPRP
A. highest

Q. Into which bin does this sequence go? RRIRMRPPRLPRPRPRPGMYPRP
A. highest

Q. Into which bin does this sequence go? RRIRFRPPRLPRPRPRPQYFPRP
A. lowest

* * *

System: Escherichia coli TOP10
Assay: shrunken log2 fold change of peptide-encoding DNA abundance (4.5 h post-induction vs induction); higher = less antimicrobial activity (less host growth inhibition)
Details: time post-induction: 4.5 h; library: site-saturation at positions 5, 18, 19, 20
Kindly return Y if reported shrunken log2 fold change is no lower than -0.04; return N if it is lower.

Answered cases to consult:
RRIRKRPPRLPRPRPRPGMGPRP
Y
RRIRIRPPRLPRPRPRPYSLPRP
N
RRIRFRPPRLPRPRPRPDACPRP
Y
RRIRTRPPRLPRPRPRPSIVPRP
N

Q. Does RRIRKRPPRLPRPRPRPCCAPRP have a reported shrunken log2 fold change of at least -0.04?
A. Y

Q. Does RRIRWRPPRLPRPRPRPGTEPRP have a reported shrunken log2 fold change of at least -0.04?
A. Y

Q. Does RRIRHRPPRLPRPRPRPNPVPRP have a reported shrunken log2 fold change of at least -0.04?
A. N

Q. Does RRIRLRPPRLPRPRPRPIIGPRP have a reported shrunken log2 fold change of at least -0.04?
A. N

* * *

Tested on: Escherichia coli TOP10;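 also: peptides expressed intracellularly from a pBAD plasmid library in pooled LB shake-flask culture, induced with 0.3% L-arabinose, DNA abundance read by NGS, three biological replicates, DESeq2 with apeglm shrinkage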
Assay: shrunken log2 fold change of peptide-encoding DNA abundance (4.5 h post-induction vs induction); higher = less antimicrobial activity (less host growth inhibition)
Conditions: time post-induction: 4.5 h; library: site-saturation at positions 5, 18, 19, 20
Kindly return T if reported shrunken log2 fold change is no lower than -0.02; return F if it is lower.

Answered cases to consult:
RRIRNRPPRLPRPRPRPCIVPRP
T
RRIRPRPPRLPRPRPRPFAEPRP
T
RRIRMRPPRLPRPRPRPKSIPRP
T
RRIRLRPPRLPRPRPRPCIVPRP
F
RRIRIRPPRLPRPRPRPSFNPRP
F

Q. Does RRIRQRPPRLPRPRPRPALSPRP have a reported shrunken log2 fold change of at least -0.02?
A. T

Q. Does RRIRVRPPRLPRPRPRPQKMPRP have a reported shrunken log2 fold change of at least -0.02?
A. F

Q. Does RRIRRRPPRLPRPRPRPSISPRP have a reported shrunken log2 fold change of at least -0.02?
A. F

Q. Does RRIRFRPPRLPRPRPRPFYRPRP have a reported shrunken log2 fold change of at least -0.02?
A. F

Q. Does RRIRLRPPRLPRPRPRPHPTPRP have a reported shrunken log2 fold change of at least -0.02?
A. F

Q. Does RRIRFRPPRLPRPRPRPRQNPRP have a reported shrunken log2 fold change of at least -0.02?
A. T

Q. Does RRIRVRPPRLPRPRPRPTDEPRP have a reported shrunken log2 fold change of at least -0.02?
A. F

Q. Does RRIRDRPPRLPRPRPRPKLNPRP have a reported shrunken log2 fold change of at least -0.02?
A. T

Q. Does RRIRPRPPRLPRPRPRPDNEPRP have a reported shrunken log2 fold change of at least -0.02?
A. F

Q. Does RRIRVRPPRLPRPRPRPLYQPRP have a reported shrunken log2 fold change of at least -0.02?
A. F

Q. Does RRIRPRPPRLPRPRPRPLHEPRP have a reported shrunken log2 fold change of at least -0.02?
A. T

Q. Does RRIRGRPPRLPRPRPRPKACPRP have a reported shrunken log2 fold change of at least -0.02?
A. T

Q. Does RRIRIRPPRLPRPRPRPVAKPRP have a reported shrunken log2 fold change of at least -0.02?
A. T

Q. Does RRIRPRPPRLPRPRPRPCIWPRP have a reported shrunken log2 fold change of at least -0.02?
A. F

Q. Does RRIRKRPPRLPRPRPRPDQYPRP have a reported shrunken log2 fold change of at least -0.02?
A. T

Every entry's value here was drawn from the supplement of paper PMC9112550.
